Source listed as ChEMBL document CHEMBL1155225.

Experiment: Permeability at 5 to 10 uM at pH 4, 6.8 and 8 by PAMPA
Conditions: pH 4, 6.8, 8, 10 µM
value kind: logPm
Please respond with just the number, no unit label.

Exam item: Fill blank: measured logPm of the compound COc1ccc2nc(NC(=O)C(CC3CCCC3)c3ccc(S(=O)(=O)Nc4ccccc4)cc3)sc2n1 (stereo unspecified) is ____.
Marked response: -3.8

Exam item: Follow-up entry: CCC(=O)NS(=O)(=O)c1ccc(C(CC2CCCC2)C(=O)Nc2nc3ccc(OC)nc3s2)cc1 (stereo unspecified)
Marked response: -4.1

Exam item: Input COc1ccc2nc(NC(=O)C(CC3CCCC3)c3ccc(S(=O)(=O)NC4CCCCC4)cc3)sc2n1 (stereo unspecified)
Marked response: -7

Exam item: Same for COc1ccc2nc(NC(=O)C(CC3CCCC3)c3ccc(S(=O)(=O)NCc4cccnc4)cc3)sc2n1 (stereo unspecified)
Marked response: -4.6

Exam item: COc1ccc2nc(NC(=O)C(CC3CCCC3)c3ccc(S(=O)(=O)NCc4ccco4)cc3)sc2n1 (stereo unspecified) , same question.
Marked response: -4.9

Exam item: Same lookup for COc1ccc2nc(NC(=O)C(CC3CCCC3)c3ccc(S(=O)(=O)NCC(=O)O)cc3)sc2n1 (stereo unspecified) , please.
Marked response: -4.4

Exam item: Param item: COc1ccc2nc(NC(=O)C(CC3CCCC3)c3ccc(S(=O)(=O)NCc4cccs4)cc3)sc2n1 (stereo unspecified)
Marked response: -5.1

Exam item: And what about the compound COc1ccc2nc(NC(=O)C(CC3CCCC3)c3ccc(S(=O)(=O)NC4CCOCC4)cc3)sc2n1 (stereo unspecified) ?
Marked response: -4.5

Exam item: Next record, please: COCCNS(=O)(=O)c1ccc(C(CC2CCCC2)C(=O)Nc2nc3ccc(OC)nc3s2)cc1 (stereo unspecified)
Marked response: -5

Exam item: What about this compound? COc1ccc2nc(NC(=O)C(CC3CCCC3)c3ccc(S(=O)(=O)N(C)C)cc3)sc2n1 (stereo unspecified)
Marked response: -3.3

Exam item: Next entry: COc1ccc2nc(NC(=O)C(CC3CCCC3)c3ccc(S(=O)(=O)N(C)Cc4ccco4)cc3)sc2n1 (stereo unspecified)
Marked response: -5.1

----------
Please respond with reported solubility for every item in the list.
Test: Aqueous solubility in water by HPLC analysis
Type: physicochemical
Form entry: value (µg/mL) — number only.

Exam item: # query: solubility of entry CCC(=O)[N-]S(=O)(=O)c1ccc(C(CC2CCCC2)C(=O)Nc2nc3ccc(OC)nc3s2)cc1.[Na+] (configuration not stated)
Marked response: 11

Exam item: Try this compound too: CCCC(=O)[N-]S(=O)(=O)c1ccc(C(CC2CCCC2)C(=O)Nc2nc3ccc(OC)nc3s2)cc1.[Na+] (configuration not stated)
Marked response: 26

----------
Exercise: state measured logPm for each of the compounds provided.
Assay: Permeability at 5 to 10 uM at pH 4, 6.8 and 8 by PAMPA
Conditions: pH 4, 6.8, 8, 10 µM
I'd appreciate a reply containing only the number, no unit.

Exam item: Tell me the measured logPm of COc1ccc2nc(NC(=O)C(CC3CCCC3)c3ccc(S(=O)(=O)NCc4ccncc4)cc3)sc2n1 (centres undefined) , please.
Marked response: -4.3

Exam item: Same question for COc1ccc2nc(NC(=O)C(CC3CCCC3)c3ccc(S(=O)(=O)N4CCN(C)CC4)cc3)sc2n1 (centres undefined) please.
Marked response: -3.9

Exam item: Request: COc1ccc2nc(NC(=O)C(CC3CCCC3)c3ccc(S(N)(=O)=O)cc3)sc2n1 (centres undefined)
Marked response: -4.4

Exam item: And what about the compound COc1ccc2nc(NC(=O)C(CC3CCCC3)c3ccc(S(=O)(=O)N(C)Cc4ccccc4)cc3)sc2n1 (centres undefined) ?
Marked response: -5.4

Exam item: Field entry: COc1ccc2nc(NC(=O)C(CC3CCCC3)c3ccc(S(=O)(=O)N4CCCCC4)cc3)sc2n1 (centres undefined)
Marked response: -5.2

Exam item: Another compound: CCN(CC)S(=O)(=O)c1ccc(C(CC2CCCC2)C(=O)Nc2nc3ccc(OC)nc3s2)cc1 (centres undefined)
Marked response: -5.9

Exam item: Same question, COc1ccc2nc(NC(=O)C(CC3CCCC3)c3ccc(S(=O)(=O)N(C)CCO)cc3)sc2n1 (centres undefined) this time
Marked response: -4.4

Exam item: Another compound to check: COc1ccc2nc(NC(=O)C(CC3CCCC3)c3ccc(S(=O)(=O)NCCC(=O)O)cc3)sc2n1 (centres undefined)
Marked response: -4.3

Exam item: And for COc1ccc2nc(NC(=O)C(CC3CCCC3)c3ccc(S(=O)(=O)NC4CC4)cc3)sc2n1 (centres undefined) ?
Marked response: -5.2
